Target: T1, HLA-A*02:01 (human)
T1 construct: captured on streptavidin plates; also called peptide-receptive MHC molecules
Assay: UV peptide exchange ELISA (anti-b2m); yield grade: + >10%, ++ >20%, +++ >50, ++++ >75%

{"binder": "FLDASGAKL", "peptide exchange yield": "> 75%"}
{"binder": "ALFAAGANV", "peptide exchange yield": "50 to 75%"}
{"binder": "IIDPPLHGQLL", "peptide exchange yield": "20 to 50%"}
{"binder": "NLDATVTAL", "peptide exchange yield": "50 to 75%"}
{"binder": "GLDIITNKV", "peptide exchange yield": "50 to 75%"}
{"binder": "LLDPTNVFI", "peptide exchange yield": "> 75%"}
{"binder": "IQSETTVTV", "peptide exchange yield": "> 75%"}
{"binder": "ALDSDPVGL", "peptide exchange yield": "50 to 75%"}
